Assay: in vitro
Conditions: rat, gh3-tre-luc cells, AC50 (uM) modified / 1000
Where a name gives a salt, the structure may show the parent alone.
assay_metric: CC50 at 24 h

Check out these entries, answers already filled in.
# molecule, CC50 at 24 h
rows = [
    ("CC(=O)Nc1ccc(C)c(Cl)c1 [N-(3-Chloro-4-methylphenyl)acetamide]", "> 90 µM"),
    ("COCC(C)OCC(C)OC(C)=O (stereo not drawn) [Dipropyleneglycol methyl ether acetate]", "> 90 µM"),
    ("O=C(CN1CCN(Cc2ccc3c(c2)OCO3)CC1)N1c2ccccc2Sc2ccccc21", "23.4 µM"),
    ("CC(c1cc2ccccc2s1)N(O)C(N)=O (stereo not drawn)", "> 90 µM"),
    ("COC(=O)CCCC(=O)O", "> 90 µM"),
]

Using known records, supply CC50 at 24 h for COc1ccc(-c2nc3ccc(C4=NNC(=O)CC4C)cc3[nH]2)cc1 (stereo not drawn) [Pimobendan hydrochloride]
36.4 µM

Using known records, supply CC50 at 24 h for `O=[N+]([O-])c1cc(N(CCO)CCO)ccc1NCCO`
> 90 µM

Using known records, supply CC50 at 24 h for `C[C@@](Cc1ccc(O)c(O)c1)(NN)C(=O)O`
> 50 µM

Using known records, supply CC50 at 24 h for `CC(C)Nc1cccnc1N1CCN(C(=O)c2cc3cc(NS(C)(=O)=O)ccc3[nH]2)CC1`
> 50 µM

Sourced from paper PMC6792352
